Value source: patent US9187525B2

Target under test: T1, natriuretic peptide receptor-B (human)
T1 chain: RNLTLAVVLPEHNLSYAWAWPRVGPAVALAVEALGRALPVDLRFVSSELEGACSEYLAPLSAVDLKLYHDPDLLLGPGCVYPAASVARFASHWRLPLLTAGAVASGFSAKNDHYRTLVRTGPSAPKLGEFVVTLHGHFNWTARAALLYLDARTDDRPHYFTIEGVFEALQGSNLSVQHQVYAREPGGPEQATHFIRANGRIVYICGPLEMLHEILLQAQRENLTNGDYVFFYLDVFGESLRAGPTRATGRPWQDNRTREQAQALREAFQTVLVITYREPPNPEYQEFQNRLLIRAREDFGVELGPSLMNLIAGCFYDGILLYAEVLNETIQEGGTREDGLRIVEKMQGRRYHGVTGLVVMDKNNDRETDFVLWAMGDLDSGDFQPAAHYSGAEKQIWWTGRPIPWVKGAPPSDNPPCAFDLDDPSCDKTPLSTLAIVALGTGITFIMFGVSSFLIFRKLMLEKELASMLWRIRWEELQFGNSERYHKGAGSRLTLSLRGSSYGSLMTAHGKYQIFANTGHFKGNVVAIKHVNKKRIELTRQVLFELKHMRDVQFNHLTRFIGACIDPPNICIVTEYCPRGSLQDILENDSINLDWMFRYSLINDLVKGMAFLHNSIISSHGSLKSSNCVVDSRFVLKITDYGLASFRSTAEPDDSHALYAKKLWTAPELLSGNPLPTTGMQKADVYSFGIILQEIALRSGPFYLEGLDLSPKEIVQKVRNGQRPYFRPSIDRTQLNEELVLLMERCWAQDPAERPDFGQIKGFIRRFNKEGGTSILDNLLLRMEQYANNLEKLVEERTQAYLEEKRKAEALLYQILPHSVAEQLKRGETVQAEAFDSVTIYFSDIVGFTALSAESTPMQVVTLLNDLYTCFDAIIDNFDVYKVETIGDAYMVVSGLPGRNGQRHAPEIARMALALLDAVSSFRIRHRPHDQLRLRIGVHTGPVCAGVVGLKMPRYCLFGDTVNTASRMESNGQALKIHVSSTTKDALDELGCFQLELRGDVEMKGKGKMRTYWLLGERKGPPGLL
Protocol: cell-based or functional assay
Numbered stars: 1 amine (or outer) side, 2 acyl side, 3 side chain; on linkers, the order of the positions; unused ones are H or OH. Square brackets hold non-standard residues; d marks the D form. Ends that are not written are not given here. * marks the point of attachment. 779 = 2-((1S,2R,4R)-bicyclo[2.2.1]heptan-2-yl)acetic acid, O=C(C[C@H]1C[C@@H]2CC[C@H]1C2)*; Sni = (S)-nipecotic acid, O=C([C@H]1CCCN([*:1])C1)[*:2]; Hyp = O=C(O)[C@@H]1C[C@@H](O)CN1; NMeL = CN[C@@H](CC(C)C)C(=O)O; dDab = NCC[C@@H](N)C(=O)O; Octanoyl = CCCCCCCC(=O)*; Che = not defined here; ala = not defined here; leu = not defined here; Occ = octanoic acid
Consider the following binders; for each one, report its EC50 group, cGMP in GTM-3 cells.

Okay, here is my list. What is EC50 group, cGMP in GTM-3 cells for each of these?
1. Octanoyl-[Sni]F[dDab](Me2)L[Hyp][NMeL]VR[Che] (reading uncertain; also: printed as Occ-Sni-Phe-dab(Me2)-Leu-Hyp-Nml-Val-Arg-Che) [JAL-1784]
2. [Occ][Sni]F[leu]L[Hyp][NMeL]TRI-NH2 (reading uncertain; also: printed as Occ-Sni-Phe-leu-Leu-Hyp-Nml-Thr-Arg-Ile-NH2) [JAL-1932]
3. Octanoyl-[ala]FGLPLDRI-NH2 (reading uncertain; also: printed as Occ-ala-Phe-Gly-Leu-Pro-Leu-Asp-Arg-Ile-NH2) [JAL-0835]
4. [779][Sni]F[leu]L[Hyp][NMeL]DRI-NH2 (reading uncertain; also: printed as 779-Sni-Phe-leu-Leu-Hyp-Nml-Asp-Arg-Ile-NH2) [JAL-1659]

// result
1: ≤ 1000 nM; 2: ≤ 1000 nM; 3: ≤ 15000 nM; 4: ≤ 5000 nM
